Experiment: chemical genetic growth profiling, strain panel (AID 1159580);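 further: tested at 20 µM; growth read once vehicle control cultures reached saturation at 30 °C; 1 = growth at the plate median or of vehicle wells; lower values mean less growth of the strain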
Settings: S. cerevisiae deletion strains, growth OD, locus YPR119W, strain clb2, hits give low values
Out of some 5,500 compounds screened, about 2,000 (36%) were called active. Another 18% or so got no clear call; they are omitted. The list shows a part of the results.
Give measured normalized growth for each item. Keep answers brief.
Reply: number alone, nothing else.

Enquiry: Quick one: normalized growth for CC(NCCc1ccc(O)cc1)C(O)c1ccc(O)cc1 (configuration not stated) ?
Return: 0.986

Enquiry: Which normalized growth value belongs to CC1(C)C(C=C(Cl)Cl)C1C(=O)OC(C#N)c1cccc(Oc2ccccc2)c1 (configuration not stated) ?
Return: 1.01

Enquiry: Which normalized growth reading was recorded for the compound CC(Oc1ccccc1)C(=O)N[C@@H]1C(=O)N2[C@@H]1SC(C)(C)[C@@H]2C(=O)O (some centres not stated) ?
Return: 1.02

Enquiry: If you can, please state the reported normalized growth value of CN[C@@H](C)[C@@H](O)c1ccccc1 .
Return: 0.983

Enquiry: Which normalized growth reading was recorded for the compound NCC1CCC(C(=O)O)CC1 (configuration not stated) ?
Return: 0.994

Enquiry: What does the data say about its normalized growth? Entry: COc1ccc2cc([C@H](C)C(=O)O)ccc2c1
Return: 0.977

Enquiry: For C[C@]12CC(=O)C3C(CC[C@@H]4C[C@H](O)CC[C@]34C)C1CC[C@]2(O)C(=O)CO (some centres not stated) , what is its reported normalized growth?
Return: 0.997

Enquiry: Endpoint output: normalized growth of CC(C(=O)O)c1cccc(Oc2ccccc2)c1 (configuration not stated) . Value?
Return: 0.958

Enquiry: Which value of normalized growth has been reported for CC(C(=O)O)c1ccc(-c2ccccc2)c(F)c1 (configuration not stated) in the records?
Return: 0.95

Enquiry: Given the entry CCCCCCCCNC(C)C(O)c1ccc(SC(C)C)cc1 (configuration not stated) , report its measured normalized growth.
Return: 0.0589

Enquiry: What does the data say about its normalized growth? Entry: COc1ccc(OC)c(C(O)C(C)N)c1 (configuration not stated)
Return: 0.988

Enquiry: Which measured normalized growth value corresponds to CC(CCc1ccccc1)NC(C)C(O)c1ccc(O)cc1 (configuration not stated) ?
Return: 0.981
